molecular target: Tyrosine-protein kinase JAK2 (Homo sapiens, UniProt O60674, V617F); test: Inhibition of JAK2 V617F mutant (unknown origin)
Sequence (O60674 whole entry V617F): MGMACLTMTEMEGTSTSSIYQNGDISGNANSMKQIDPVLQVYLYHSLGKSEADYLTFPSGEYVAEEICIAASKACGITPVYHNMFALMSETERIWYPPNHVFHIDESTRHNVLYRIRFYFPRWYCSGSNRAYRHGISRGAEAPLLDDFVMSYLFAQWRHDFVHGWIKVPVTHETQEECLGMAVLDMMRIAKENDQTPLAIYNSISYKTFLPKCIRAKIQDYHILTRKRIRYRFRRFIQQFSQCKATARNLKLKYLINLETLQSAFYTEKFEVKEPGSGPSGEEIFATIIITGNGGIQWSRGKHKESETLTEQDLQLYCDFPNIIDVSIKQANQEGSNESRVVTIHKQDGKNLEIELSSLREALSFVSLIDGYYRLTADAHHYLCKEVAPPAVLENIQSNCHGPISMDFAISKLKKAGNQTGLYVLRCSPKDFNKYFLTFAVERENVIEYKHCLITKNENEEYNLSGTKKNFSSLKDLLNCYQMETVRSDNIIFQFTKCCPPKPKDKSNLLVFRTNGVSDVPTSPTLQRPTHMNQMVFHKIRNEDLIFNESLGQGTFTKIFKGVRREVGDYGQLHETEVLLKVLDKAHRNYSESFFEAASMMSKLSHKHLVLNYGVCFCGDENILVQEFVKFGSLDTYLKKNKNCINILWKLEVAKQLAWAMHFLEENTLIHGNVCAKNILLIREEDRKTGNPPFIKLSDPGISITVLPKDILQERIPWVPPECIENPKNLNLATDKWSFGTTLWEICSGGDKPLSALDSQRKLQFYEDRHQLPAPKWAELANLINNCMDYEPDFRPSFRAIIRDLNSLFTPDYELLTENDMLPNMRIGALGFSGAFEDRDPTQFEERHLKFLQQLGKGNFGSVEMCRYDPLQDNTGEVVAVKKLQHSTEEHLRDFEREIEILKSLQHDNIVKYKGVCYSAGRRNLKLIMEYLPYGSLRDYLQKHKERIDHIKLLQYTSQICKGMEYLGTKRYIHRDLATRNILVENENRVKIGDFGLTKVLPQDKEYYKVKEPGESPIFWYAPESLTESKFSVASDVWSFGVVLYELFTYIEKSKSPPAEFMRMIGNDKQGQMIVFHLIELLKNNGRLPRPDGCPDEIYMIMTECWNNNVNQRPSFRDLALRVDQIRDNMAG
experimental-endpoint: pIC50
# log scale: pIC50 equals minus log10 of the concentration in mol/L

# get_value(readout='pIC50', item= `Cc1cc(Nc2cc(CN3CCOCC3)c3nc(C)c(Cc4ccc(Cl)cc4F)n3n2)n[nH]1` )
7.26
